- assayComment: NCI Yeast Anticancer Drug Screen. Data for the bub3 strain (AID 167)
- testParameters: S. cerevisiae bub3 mutant strain, at 50.0 µM, active compounds read high
Compounds without any hit were thinned out: in the full panel of roughly 79,000, 15% have a hit.
metric: growth inhibition (%)
One number for each entry, in %.

O=C(Nc1ccccc1)O/N=C(/c1ccccc1)c1cccnc1 | 15.2

Hi! Can you tell me growth inhibition for each of these molecules?
1. O=[N+]([O-])c1cc(NC(=S)SCc2ccc3c(c2)OCO3)ccc1Cl
2. CNS(=O)(=O)c1ccc(N)cc1
3. CCCCCCC(=O)c1ccco1
4. CCC1(CN(C)C)CC/C(=C\c2ccc(OC)cc2)C1=O (centres undefined)
5. NC(=O)C1CCCN(C2OC(COP(=O)(O)OP(=O)(O)OCC3OC(n4cnc5c(N)ncnc54)C(OP(=O)(O)O)C3O)C(O)C2O)C1 (centres undefined)
6. NC(Cc1ccc(OC(c2ccccc2)(c2ccccc2)c2ccccc2)cc1)C(=O)O (centres undefined)

1. 56.4
2. 3.15
3. -1.75
4. -5.8
5. 16.3
6. -6.1

// each molecule listed below needs its growth inhibition
1. Cc1ccc(C2(C(=O)O)CC2)cc1
2. CCc1ccc(-c2c(-c3ccccc3)c(-c3ccccc3)c(-c3ccccc3)c(-c3ccccc3)c2-c2ccccc2)cc1

1. -13.8
2. -6.3

---

- assayComment: NCI Yeast Anticancer Drug Screen. Data for the sgs1 mgt1 strain (AID 161);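 also: 0% = growth of cultures given vehicle only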
- testParameters: S. cerevisiae sgs1 mgt1 strain, at 50.0 µM, active compounds read high
Compounds without any hit were thinned out: in the full panel of roughly 79,000, 15% have a hit.
metric: growth inhibition (%)
Answers are plain numbers, in %.

Take a look at these entries with their results.
CC(=O)Nc1nnc(S(C)(=O)=O)s1 | -55.6
Cc1ccc2oc(=O)c(C(=O)Nc3nc(C45CC6CC(CC(C6)C4)C5)cs3)cc2c1 | -23.6
COc1ccc(C(C#N)Cc2ccccc2)c([N+](=O)[O-])c1 (stereo unspecified) | 4.8

I'm hoping you can list growth inhibition for every molecule here, please.
1. CCC1CCCCCC1=O (stereo unspecified)
2. Cn1c(=O)n2n(c1=O)C1C=CC2C2C=C(c3ccccc3)C21 (stereo unspecified)
3. CCC(=O)/C=C/c1cc(OC)c(OC)c(OC)c1
4. CC(C)(C)/C(CC(=O)CCC(=O)Nc1ccc(Cl)cc1)=N\NC(N)=S
5. CSc1nc(N)c(C(N)=O)cc1C#N
6. Cc1cc(C[C@H]2O[C@@H]3OC(C)(C)O[C@@H]3[C@H]3OC(C)(C)O[C@H]32)c2ccccc2n1
7. Cc1ccc(S(=O)(=O)NNC(=O)c2ccc[nH]2)cc1
8. O=[N+]([O-])c1ccc(N/N=C/c2ccccc2Cl)c([N+](=O)[O-])c1

[-18.6, -0.8, -4.4, 19.1, -5.4, 19.9, -7.85, -1.15]

---

- assayComment: NCI Yeast Anticancer Drug Screen. Data for the rad50 strain (AID 155);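 also: 0% = growth of vehicle-only cultures of the same strain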
- testParameters: S. cerevisiae rad50 strain growth inhibition; at 50.0 µM; active compounds read high
The panel holds about 79,000 compounds, 15% with a hit somewhere; the sample as a whole holds those more often.
metric: growth inhibition (%)
Answers are plain numbers, in %.

# example entries with known answers
Cc1nn(-c2ccccc2)c2oc3ccccc3c(=O)c12 | -25.6
Nc1ccc2[nH]c(=O)c(=O)[nH]c2c1 | 2
CCOC(=O)n1cccc(C)c1=N | -10.1

Batch: growth inhibition for all items listed.
1. O=C1C(Cl)C(c2ccc(O)cc2)N1n1cnc2ccccc2c1=O (stereo unspecified)
2. N=C1/C(=C/c2ccco2)C(=O)N=C2SC=NN12
3. Cc1cc(C)nc(NS(=O)(=O)c2ccc(NC(=O)c3ccc(Cl)c4c(Nc5ccc(S(=O)(=O)Nc6nc(C)cc(C)n6)cc5)c5ccccc5nc34)cc2)n1
4. COc1ccc2c(c1)-c1cc(OC)ccc1C2c1ccccc1
5. CCOC(=O)c1nn2c(nc1=O)sc1ccc3ccccc3c12
6. CC(=O)OCN(C)N=Nc1ccc([N+](=O)[O-])cc1

1: 56.6; 2: 7.75; 3: 28.1; 4: -1.1; 5: -22; 6: 28

Provide each entry's growth inhibition from the list below.
1. CC(C)Cc1ccc(OC(=O)Nc2ccccc2)cc1
2. CCC(/C=C/c1ccccc1)=N\NC(=O)c1ccc(C)cc1

[-7.5, 9.4]

Would you be so kind as to report growth inhibition for each listed record?
1. Nc1cccc2c1-c1ccc([N+](=O)[O-])cc1C2=O
2. Cc1cccc(N(CCOS(C)(=O)=O)CCOS(C)(=O)=O)c1
3. Cc1ccc(C(=O)NO)cc1
4. Cc1ccc2c(c1)C1(c3ccccc3)Oc3ccc(C)cc3C(c3ccccc3)(O2)O1
5. CC(=O)OC1CCC2(C)C(=CCC3C2CCC2(C)/C(=N\NS(=O)(=O)c4ccc(C)cc4)CCC32)C1 (stereo unspecified)
6. O.O.[Cl][Pt+2][Cl].[NH-]CC1(C[NH-])CCCCC1

1. 7.6
2. -8.6
3. 28.8
4. 12.2
5. 63.7
6. 10.4

For every item in the list below, what is its measured growth inhibition?
1. Cc1cc(=O)[nH]c2ccc(Cc3ccc(Cl)cc3)cc12
2. Cc1ccc2nc(CN(CCO)CCO)cc(=O)n2c1
3. CC(=O)ON=C(C1CC1)C1CC1
4. O=C(OCCNC(=O)N1CCOCC1)OCCNC(=O)N1CCOCC1
5. CCCCCCCCCCCCSCCO
6. O=C(CCCn1ccnc1[N+](=O)[O-])NCCn1cncc1[N+](=O)[O-]
7. N#Cc1nc(-c2ccccc2)c(-c2ccccc2)nc1C#N
8. O=C(Nc1nc2ncn(CCNCCn3cnc4nc(NC(=O)c5ccccc5)[nH]c(=O)c43)c2c(=O)[nH]1)c1ccccc1

12.8
34.4
-6
-16.8
20.9
0.65
3.15
-10.2

Please report growth inhibition for every entry that follows.
1. CC(=O)OCc1cccc(O)c1C(=O)CCC=C(C)C
2. NCC(=O)c1c[nH]c(=O)[nH]c1=O

-4.4
-8.85

Please give growth inhibition for each item listed below.
1. CC(=O)Oc1ccccc1C#CC(=O)O
2. COc1ccc(Cc2ccccc2)cc1

1: 17.3; 2: -2

Below are some compounds; for each one, tell me its growth inhibition.
1. CC1(C)CC[C@]2(C(=O)O)CC[C@]3(C)C(=CC[C@@H]4[C@@]5(C)CC[C@@H]6OC(C)(C)OC[C@@]6(C)[C@@H]5CC[C@]43C)[C@H]2C1
2. COc1nc(NCCO)nc(OC)n1
3. O=C(O)C1C(C2c3ccc(O)cc3Oc3cc(O)ccc32)C2(Cl)C(Cl)=C(Cl)C1(Cl)C2(Cl)Cl (stereo unspecified)
4. S=c1nc[nH]c2c1CN(Cc1ccccc1)CC2
5. O=C1CSC(c2c[nH]c3ccccc23)N1c1cccc([N+](=O)[O-])c1 (stereo unspecified)
6. c1ccc(CSc2ccc3ccccc3c2)cc1
7. CN(C)Cc1[nH]c(=O)[nH]c(=O)c1O
8. COc1ccc(Cl)cc1NC(=O)c1ccc(C(=O)Nc2cc(Cl)ccc2OC)cc1

1. 3.7
2. 3.35
3. 95.3
4. -43.6
5. -61.2
6. -4.3
7. -9.05
8. -5.85

Lab note: each compound below needs its growth inhibition filled in.
1. CC(C)(C)N/N=C(\C(=O)Nc1cccc(Cl)c1)C1C(=O)Nc2ccccc2S1=O (stereo unspecified)
2. O=CC1CCCc2ccccc21 (stereo unspecified)
3. O=C1C2C(C(=O)N1c1ccccc1)C1([N+](=O)[O-])C=C3c4ccccc4N(C(=O)c4ccccc4)C32C2C(=O)N(c3ccccc3)C(=O)C21 (stereo unspecified)
4. Cn1c(=O)c2[nH]c(SCC(=O)O)nc2n(C)c1=O
5. CC(=O)NC(Cc1ccc(C)cc1)C(=O)O (stereo unspecified)
6. CCCCCCCCCC(CCCCCCCC(=O)O)NC(C)=O (stereo unspecified)

1: -31.1; 2: 17.1; 3: -24.9; 4: 7.45; 5: 3.35; 6: 32.3

---

- assayComment: NCI Yeast Anticancer Drug Screen. Data for the rad50 strain (AID 155);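 also: 0% = growth of vehicle-only cultures of the same strain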
- testParameters: S. cerevisiae rad50 strain growth inhibition; at 50.0 µM; active compounds read high
About 79,000 compounds went through this panel and 15% of them were active in at least one assay; those are over-represented in the sample as a whole.
metric: growth inhibition (%)
Answers are plain numbers, in %.

CCn1nnc2c(C(N)=O)ncn2c1=O | 0.6
CCc1nc2c(cnn2C)c(=O)n1-c1ccccc1 | -5
CC(=O)OCC(OC(C)=O)C(OC(C)=O)C(OC(C)=O)C(O)CO (stereo not given) | -0.55

For each listed entry, give its growth inhibition.
1. CCOC(=O)Nc1ccc(S(=O)(=O)c2ccc(Nc3ccnc4cc(Cl)ccc34)cc2)cc1
2. Cc1ccc2[nH]c(=O)cc(C(F)(F)F)c2c1
3. O=C(/C=C/CC(O)(c1ccccc1)c1ccccc1)Nc1ccccc1Cl
4. COC(=O)c1cccc2c1ccc1ccc3ccccc3c12
5. C=CCc1ccc(OC(=O)Nc2cccc(OC)c2)c(OC)c1
6. COc1cccc(S(=O)(=O)c2c(C)cc(C)cc2C)c1
7. CCCCCCCCCCCCCCCCCC(=O)O
8. CN1C(=O)n2c(nc3ccccc32)C(N2CCOCC2)(N2CCOCC2)C1=O

[17.1, 13.2, -15.2, -7.9, 74.5, -12.7, -5.2, 44]

Could I get growth inhibition for every one of these entries?
1. Cc1ccc(C)c2c1C1CCCCC3(OCCCO3)C21O (stereo not given)
2. O=C1CCCc2c(O)ccc(O)c21
3. CN(C)CCOC(=O)Nc1ccccc1C(F)(F)F

-4.2
5.2
16.1

Record growth inhibition per entry; entries follow.
1. N#C/C(=C/c1cccs1)c1ccc(Cl)cc1
2. CC1c2c(cc(=O)n(C)c2O)C(=O)N1Cc1ccccc1 (stereo not given)
3. Cn1c(Cc2ccccc2)c([N+](=O)[O-])c(=O)n(C)c1=O
4. Clc1ccc(Cl)s1

1. -4.6
2. 2
3. -0.2
4. 34.5

Quick request: growth inhibition for each listed item, please.
1. COC(=O)Cc1nn2c(nc1=O)sc1ccc3ccccc3c12
2. O=C(Nc1ccc([N+](=O)[O-])cc1)OCc1ccccc1
3. CCOC(=O)C(C(=O)OCC)=C1N[C@H](C(=O)OCC)CS1
4. [CH3][Ga]([CH3])[O]c1ccccc1C=O

1: -16.7; 2: -14.1; 3: -0.8; 4: -3.6
